# testedOn: ACCase (chloroplastic acetyl coenzyme A carboxylase)
# Construct: plastid and cytosolic forms not separated; S biotype has Arg1789, Met2065, Gly2067, Val2077
# assaySummary: NaH14CO3 incorporation into acid-stable product (malonyl-CoA)
# Format: biochemical, Cynosurus echinatus
# conditionDescription: S biotype; 5 mM acetyl-CoA, 1.5 mM ATP, 5 mM MgCl2, 15 mM bicarbonate, pH 8.3, 34°C; read-out: I50
pIC50: −log10 of the molar value.

# molecule, testedOn, pIC50
rows = [
    ("CCc1cc(C)cc(CC)c1-c1c(OC(=O)C(C)(C)C)n2n(c1=O)CCOCC2", "ACCase (chloroplastic acetyl coenzyme A carboxylase)", 6.41),
    ("CCCC(=NOCC)C1=C(O)CC(C2CCCSC2)CC1=O (stereo not drawn)", "ACCase (chloroplastic acetyl coenzyme A carboxylase)", 5.60),
    ("CC(Oc1ccc(Oc2ccc(Cl)cc2Cl)cc1)C(=O)O (stereo not drawn)", "ACCase (chloroplastic acetyl coenzyme A carboxylase)", 5.34),
    ("CC(Oc1ccc(Oc2nc3ccc(Cl)cc3o2)cc1)C(=O)O (racemic)", "ACCase (chloroplastic acetyl coenzyme A carboxylase)", 5.80),
    ("C[C@@H](Oc1ccc(Oc2ccc(C#N)cc2F)cc1)C(=O)O", "ACCase (chloroplastic acetyl coenzyme A carboxylase)", 4.99),
    ("CCCC(=NOCC)C1=C(O)CC(CC(C)SCC)CC1=O (stereo not drawn)", "ACCase (chloroplastic acetyl coenzyme A carboxylase)", 3.10),
]

Reference for the values: paper PMC4826872
